Assay System: Cholinesterase (Equus caballus, UniProt P81908)
Sequence (P81908 whole entry): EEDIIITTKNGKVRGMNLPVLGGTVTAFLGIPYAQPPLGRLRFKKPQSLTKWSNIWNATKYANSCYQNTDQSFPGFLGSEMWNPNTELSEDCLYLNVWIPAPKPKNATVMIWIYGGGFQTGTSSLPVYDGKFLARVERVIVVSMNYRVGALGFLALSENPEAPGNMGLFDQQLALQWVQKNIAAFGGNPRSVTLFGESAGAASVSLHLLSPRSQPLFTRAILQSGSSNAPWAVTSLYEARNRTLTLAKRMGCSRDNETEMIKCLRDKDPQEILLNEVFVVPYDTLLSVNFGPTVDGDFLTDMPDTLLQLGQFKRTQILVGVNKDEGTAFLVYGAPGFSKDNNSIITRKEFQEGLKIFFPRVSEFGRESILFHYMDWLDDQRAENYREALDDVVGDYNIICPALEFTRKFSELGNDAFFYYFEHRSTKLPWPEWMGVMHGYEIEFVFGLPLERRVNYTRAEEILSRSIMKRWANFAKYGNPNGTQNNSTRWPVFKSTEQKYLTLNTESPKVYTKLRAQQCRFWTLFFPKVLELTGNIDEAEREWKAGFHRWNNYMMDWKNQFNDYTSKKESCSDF
Assay Procedure: Inhibition of horse serum BuChE using butyrylthiocholine iodide as substrate preincubated with enzyme for 20 mins followed by substrate addition and measured after 10 mins by Ellman's method
Quantity: pIC50
Recall that pIC50 is obtained by taking minus log10 of the concentration measured in molar.

Looking up COc1cc2c(cc1OCCN1CCCCC1)C(=O)C(Cc1cccnc1)C2 (stereo unspecified) , I see its pIC50 listed as 4.43

---

Assay System: High affinity cAMP-specific and IBMX-insensitive 3',5'-cyclic phosphodiesterase 8A (Homo sapiens)
Sequence (O60658 whole entry): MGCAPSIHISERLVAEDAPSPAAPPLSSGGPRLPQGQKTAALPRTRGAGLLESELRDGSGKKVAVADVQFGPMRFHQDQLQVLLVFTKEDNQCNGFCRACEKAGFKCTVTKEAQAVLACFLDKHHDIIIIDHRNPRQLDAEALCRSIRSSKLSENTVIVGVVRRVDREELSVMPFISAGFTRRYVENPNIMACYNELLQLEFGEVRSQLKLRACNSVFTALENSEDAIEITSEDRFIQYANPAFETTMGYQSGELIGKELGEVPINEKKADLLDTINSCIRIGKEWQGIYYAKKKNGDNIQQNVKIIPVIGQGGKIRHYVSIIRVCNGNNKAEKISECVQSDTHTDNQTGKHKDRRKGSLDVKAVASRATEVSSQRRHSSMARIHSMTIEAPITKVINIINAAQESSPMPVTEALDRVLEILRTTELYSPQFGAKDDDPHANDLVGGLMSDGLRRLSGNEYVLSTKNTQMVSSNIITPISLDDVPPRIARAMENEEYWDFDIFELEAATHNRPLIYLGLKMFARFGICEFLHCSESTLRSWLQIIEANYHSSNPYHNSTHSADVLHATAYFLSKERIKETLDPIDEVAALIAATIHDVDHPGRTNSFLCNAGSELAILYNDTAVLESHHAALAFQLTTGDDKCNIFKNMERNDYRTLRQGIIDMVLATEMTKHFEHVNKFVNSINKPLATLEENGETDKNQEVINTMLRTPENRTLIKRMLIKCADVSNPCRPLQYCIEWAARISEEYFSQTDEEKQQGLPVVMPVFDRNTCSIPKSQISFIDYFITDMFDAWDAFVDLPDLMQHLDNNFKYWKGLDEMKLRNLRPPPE
Quantity: IC50

Measured IC50 of COc1cc2c(cc1OCCN1CCCCC1)C(=O)C(Cc1cccnc1)C2 (stereo unspecified) : > 50 µM
